Data provenance is PubChem BioAssay (NCI).

System: 786-0 renal
experiment: NCI-60 one-dose screen, 48 h (100 = growth as untreated, 0 = no growth, -100 = all killed)
run-conditions: 10 µM unless noted
About 83,000 compounds went through this panel and 20% of them were active in at least one assay; those are over-represented in the sample as a whole.
The following compounds are listed with their measured growth values.
property-measured: growth (%)

>>> numeric_value("CCN1C(=S)N(c2ccccc2)C2C1NN=c1s/c(=C3\\C(=O)N(C(C)C)c4ccccc43)c(=O)n12 (stereo unspecified)")
93.7
>>> numeric_value("Cc1c[n+](Cc2ccc3ccccc3c2)cn1Cc1ccc2ccccc2c1")
41
>>> numeric_value("CN1C(=O)/C(=C\\c2nc([P+](c3ccccc3)(c3ccccc3)c3ccccc3)c(N3CCOCC3)o2)SC1=S")
97.5
>>> numeric_value("CC(C)C1=NOC(=O)C1=Cc1cn(-c2ccccc2)nc1-c1ccc(F)cc1")
77.4
>>> numeric_value("Oc1c(Br)cc(Br)c2ccc(Cn3cc(-c4ccccc4C(F)(F)F)nn3)nc12")
105
>>> numeric_value("COc1ccccc1NC(=O)N=Nc1c(O)[nH]c2ccccc12")
90.4
>>> numeric_value("C=CC(=O)N1CCN(c2cccc(Oc3nccc(Nc4nnc(-c5ccc(Br)cc5)s4)n3)c2)CC1")
73.5
>>> numeric_value("NS(=O)(=O)c1ccc(N=Nc2c(O)n(Cc3ccccc3)c3ccc(Cl)cc23)cc1")
48
>>> numeric_value("O=C(c1ccccc1)c1ccc(C2CCCCC2)cc1")
90.1
>>> numeric_value("Cc1cc(=O)oc2cc(OCc3nn4c(Nc5nc6ccccc6s5)c(-c5ccccc5)nc4s3)ccc12")
103
>>> numeric_value("COC(=O)c1c(C)nc(C)c2c1C(=O)C(Br)=C(NCc1ccccc1)C2=O")
51.6
>>> numeric_value("O=C(CSc1nnc(-c2cnccn2)n1-c1ccccc1)c1ccc(Cl)cc1")
95.1
>>> numeric_value("CCOC(=O)C(=O)C(C(=O)OCC)c1ccccc1 (stereo unspecified)")
93.3
>>> numeric_value("O=C(N/N=C/c1c(Cl)cccc1Cl)c1cccnc1Nc1cccc(C(F)(F)F)c1")
42.6
>>> numeric_value("Cc1ccc(CNc2ccc3nc(CCC4CCCCC4)[nH]c3c2)cc1")
52.2
>>> numeric_value("CCCCC1=C(P(=O)(O)O)N[C@H](C(=O)O)CS1")
95.1
>>> numeric_value("O=C1Nc2ccccc2/C1=C/c1cccn1CCCCn1c2ccccc2c(=O)c2ccccc21")
97
>>> numeric_value("COc1ccc2c(c1)CC[C@H](O)/C2=C/c1cc(OC)c(OC)c(OC)c1")
16.1
>>> numeric_value("Oc1c(I)cc(I)cc1CNCc1ccccn1")
36.1
>>> numeric_value("Fc1cccc(Oc2ccc(Nc3ncnc4ccc(OCCCN5CCOCC5)cc34)cc2Cl)c1")
51.9
>>> numeric_value("[O-]/[N+](=C\\c1ccc(-n2cc(Cc3ccccc3Cc3cn(-c4ccc(/C=[N+](/[O-])c5ccccc5)cc4)nn3)nn2)cc1)c1ccccc1")
97.5
